biological target: DNA topoisomerase 2-alpha (Homo sapiens); assay: Inhibition of human DNA topoisomerase 2-alpha using linear pBR322 as substrate assessed as conversion of NADH to NAD+ by measuring residual activity at 100 uM preincubated for 10 to 15 mins in presence of pyruvate kinase/lactate dehydrogenase mix followed by ATP addition and measured after 30 mins by ATPase assay relative to control; details: time 40-55 min
Sequence (P11388 whole entry): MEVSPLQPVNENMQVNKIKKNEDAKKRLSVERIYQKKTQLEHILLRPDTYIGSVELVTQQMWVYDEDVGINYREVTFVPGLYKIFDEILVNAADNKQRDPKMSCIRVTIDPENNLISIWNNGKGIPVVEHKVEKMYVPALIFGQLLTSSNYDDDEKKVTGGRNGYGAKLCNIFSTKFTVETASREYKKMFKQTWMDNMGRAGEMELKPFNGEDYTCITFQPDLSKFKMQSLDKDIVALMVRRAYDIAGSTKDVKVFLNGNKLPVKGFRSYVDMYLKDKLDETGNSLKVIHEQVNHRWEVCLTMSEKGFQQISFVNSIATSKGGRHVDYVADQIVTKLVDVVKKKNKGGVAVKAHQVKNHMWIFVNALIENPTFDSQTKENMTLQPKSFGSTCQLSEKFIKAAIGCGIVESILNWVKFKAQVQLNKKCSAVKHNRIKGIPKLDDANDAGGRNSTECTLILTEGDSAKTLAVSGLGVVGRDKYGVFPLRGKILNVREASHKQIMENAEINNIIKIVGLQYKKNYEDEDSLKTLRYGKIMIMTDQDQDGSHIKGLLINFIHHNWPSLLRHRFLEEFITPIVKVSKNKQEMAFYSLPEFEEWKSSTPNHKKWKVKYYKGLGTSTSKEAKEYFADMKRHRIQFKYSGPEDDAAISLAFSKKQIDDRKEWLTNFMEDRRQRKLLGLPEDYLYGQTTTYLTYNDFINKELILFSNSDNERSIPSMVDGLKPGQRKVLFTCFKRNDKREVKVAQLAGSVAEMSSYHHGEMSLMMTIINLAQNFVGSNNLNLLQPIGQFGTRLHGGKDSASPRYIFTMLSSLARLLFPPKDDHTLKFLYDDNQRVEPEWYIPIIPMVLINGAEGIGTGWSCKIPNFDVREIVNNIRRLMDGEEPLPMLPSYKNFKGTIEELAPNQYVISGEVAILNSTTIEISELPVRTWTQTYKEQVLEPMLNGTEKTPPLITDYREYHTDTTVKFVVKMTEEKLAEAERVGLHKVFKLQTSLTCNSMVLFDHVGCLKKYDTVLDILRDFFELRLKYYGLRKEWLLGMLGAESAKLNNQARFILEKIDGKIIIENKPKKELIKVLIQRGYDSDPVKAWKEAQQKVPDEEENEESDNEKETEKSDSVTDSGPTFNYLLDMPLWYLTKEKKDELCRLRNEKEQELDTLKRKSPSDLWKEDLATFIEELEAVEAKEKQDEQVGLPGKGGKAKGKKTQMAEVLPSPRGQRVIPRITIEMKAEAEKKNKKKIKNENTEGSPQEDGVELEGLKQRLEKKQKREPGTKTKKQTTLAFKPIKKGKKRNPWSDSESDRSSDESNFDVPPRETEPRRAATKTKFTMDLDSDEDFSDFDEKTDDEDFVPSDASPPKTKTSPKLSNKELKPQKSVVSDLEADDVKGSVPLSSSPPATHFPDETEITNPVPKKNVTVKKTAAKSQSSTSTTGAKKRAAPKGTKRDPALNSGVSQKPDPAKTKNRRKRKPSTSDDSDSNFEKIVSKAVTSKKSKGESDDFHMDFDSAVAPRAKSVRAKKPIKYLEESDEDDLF
metric_name: Activity (%)
# output: bare number, implied unit %

Exam item: If you can, please state the reported Activity value of Cc1[nH]c(C(=O)Nc2ccc(-n3nn[nH]c3=O)cc2N2CC[C@H](NC(=O)OC(C)(C)C)C2)c(Cl)c1Cl .
Marked response: 95

Exam item: If you can, please state the reported Activity value of Cc1[nH]c(C(=O)Nc2ccc(C(=O)NS(C)(=O)=O)cc2N2CCOCC2)c(Cl)c1Cl .
Marked response: 94

Exam item: If you can, please state the reported Activity value of Cc1[nH]c(C(=O)Nc2ccc(-c3noc(=O)[nH]3)cc2N2CCCC2)c(Cl)c1Cl .
Marked response: 99

Exam item: If you can, please state the reported Activity value of Cc1[nH]c(C(=O)Nc2ccc(-c3nnn[nH]3)cc2N2CCCC(CN)C2)c(Cl)c1Cl.Cl (stereo unspecified) .
Marked response: 91

Exam item: If you can, please state the reported Activity value of Cc1[nH]c(C(=O)Nc2ccc(-c3noc(=O)[nH]3)cc2N2CCCC(CN)C2)c(Cl)c1Cl.Cl (stereo unspecified) .
Marked response: 93

Exam item: If you can, please state the reported Activity value of Cc1[nH]c(C(=O)Nc2ccc(-c3noc(=O)[nH]3)cc2N2CCCC(N)C2)c(Cl)c1Cl.Cl (stereo unspecified) .
Marked response: 91

Exam item: If you can, please state the reported Activity value of Cc1[nH]c(C(=O)Nc2ccc(-c3noc(=O)[nH]3)cc2NC2CCN(C(=O)OC(C)(C)C)CC2)c(Cl)c1Cl .
Marked response: 98

Exam item: If you can, please state the reported Activity value of Cc1[nH]c(C(=O)Nc2ccc(-c3noc(=O)[nH]3)cc2N2CCNCC2)c(Cl)c1Cl.Cl .
Marked response: 101

Exam item: If you can, please state the reported Activity value of Cc1[nH]c(C(=O)Nc2ccc(-n3nn[nH]c3=O)cc2N2CCC(NC(=O)OC(C)(C)C)CC2)c(Cl)c1Cl .
Marked response: 34

Exam item: If you can, please state the reported Activity value of Cc1[nH]c(C(=O)Nc2ccc(-c3noc(=O)[nH]3)cc2N2CCN(C(=O)OC(C)(C)C)CC2)c(Cl)c1Cl .
Marked response: 95

Exam item: If you can, please state the reported Activity value of Cc1[nH]c(C(=O)Nc2ccc(-n3nn[nH]c3=O)cc2N2Cc3ccccc3C2)c(Cl)c1Cl .
Marked response: 97

Exam item: If you can, please state the reported Activity value of Cc1[nH]c(C(=O)Nc2ccc(-n3nn[nH]c3=O)cc2N2CC[C@H](N)C2)c(Cl)c1Cl.Cl .
Marked response: 108

Exam item: If you can, please state the reported Activity value of Cc1[nH]c(C(=O)Nc2ccc(-n3nn[nH]c3=O)cc2N2CCC(N)CC2)c(Cl)c1Cl.Cl .
Marked response: 103

Exam item: If you can, please state the reported Activity value of Cc1[nH]c(C(=O)Nc2ccc(-c3noc(=O)[nH]3)cc2NC2CCNCC2)c(Cl)c1Cl.Cl .
Marked response: 101

Exam item: If you can, please state the reported Activity value of Cc1[nH]c(C(=O)Nc2ccc(-c3noc(=O)[nH]3)cc2N2CCN(c3ccccc3)CC2)c(Cl)c1Cl .
Marked response: 98

Exam item: If you can, please state the reported Activity value of Cc1[nH]c(C(=O)Nc2ccc(-c3noc(=O)[nH]3)cc2N2CCC(NC(=O)OC(C)(C)C)CC2)c(Cl)c1Cl .
Marked response: 30
